Values from patent US20240374573A1

Molecular target: α2AAR (Homo sapiens, UniProt P08913)
Construct: host or cells: HEK293 (membranes)
Sequence (P08913 1-465): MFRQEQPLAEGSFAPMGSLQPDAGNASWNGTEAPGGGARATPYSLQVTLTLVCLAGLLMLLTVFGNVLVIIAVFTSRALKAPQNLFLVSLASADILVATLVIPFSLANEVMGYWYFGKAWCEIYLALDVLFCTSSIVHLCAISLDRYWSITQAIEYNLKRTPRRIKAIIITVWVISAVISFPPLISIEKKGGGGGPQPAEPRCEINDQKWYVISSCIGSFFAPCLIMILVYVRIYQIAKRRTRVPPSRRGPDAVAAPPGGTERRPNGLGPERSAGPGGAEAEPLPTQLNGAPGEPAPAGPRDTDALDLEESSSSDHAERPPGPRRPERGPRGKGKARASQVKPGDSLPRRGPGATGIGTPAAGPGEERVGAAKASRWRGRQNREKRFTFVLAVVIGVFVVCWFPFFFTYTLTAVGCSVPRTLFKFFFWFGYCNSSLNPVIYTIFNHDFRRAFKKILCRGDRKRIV
Assay: α2AAR binding assay ([3H]-RX 821002 radioligand)
Settings: [3H]-RX 821002 0.5 nM, HEK293 membranes; read-out: α2A affinity (Ki)
pKi: −log10 of the molar value.
outcome.measure: pKi

compound="Cc1cccc(C(c2c[nH]cn2)C2CCCC(C(N)=O)C2)c1C (stereo not drawn) [compound 92]" experimental_value="< 6.00"
compound="Cc1cccc(C(Cc2ccc(NC(=O)C3CCO3)cc2)c2c[nH]cn2)c1C (stereo not drawn) [compound 234]" experimental_value="> 8.00"
compound="Cc1cccc(C(c2c[nH]cn2)c2cccc(C(=O)NCC3CCOCC3)c2F)c1C (stereo not drawn) [compound 124]" experimental_value="> 8.00"
compound="Cc1cccc(C(Cc2ccc(N3CCN(C)C3=O)cc2)c2c[nH]cn2)c1C (stereo not drawn) [compound 243]" experimental_value="> 8.00"
compound="Cc1cccc(C(Cc2ccc(S(N)(=O)=O)c(F)c2)c2c[nH]cn2)c1C (stereo not drawn) [compound 208]" experimental_value="> 8.00"
compound="Cc1cccc(C(c2ccnc(C(N)=O)c2)c2c[nH]cn2)c1C (stereo not drawn) [compound 31]" experimental_value="6.60 to 7.30"
compound="CONC(=O)c1cc(C(c2c[nH]cn2)c2cccc(C)c2C)ccc1F (stereo not drawn) [compound 53]" experimental_value="6.00 to 6.60"
compound="CONC(=O)c1cc(C(c2c[nH]cn2)c2cccc(C)c2C)cs1 (stereo not drawn) [compound 182]" experimental_value="6.60 to 7.30"
compound="Cc1cccc(C(c2ccnc(NS(C)(=O)=O)c2)c2c[nH]cn2)c1C (stereo not drawn) [compound 57]" experimental_value="6.00 to 6.60"
compound="Cc1cccc(C(c2c[nH]cn2)c2cccc(C(=O)NOC3CCOCC3)n2)c1C (stereo not drawn) [compound 152]" experimental_value="> 8.00"

In plain terms, Cc1cccc(C(c2cccc(NC(=O)Cc3ccncc3)c2)c2c[nH]cn2)c1C (stereo not drawn) [compound 103] has a documented pKi of 7.30 to 8.00

Just so you know, measured pKi for Cc1cccc(C(c2cccc(OCCNS(C)(=O)=O)c2)c2c[nH]cn2)c1C (single isomer, unassigned) [46-A] came out at < 6.00

compound Cc1cccc(C(c2cccc(NC(=O)C3CCOCC3)c2)c2c[nH]cn2)c1C (stereo not drawn) [compound 149] , pKi observed: 7.30 to 8.00

pKi in this record for CCOP(=O)(OCC)c1cccc(C(c2c[nH]cn2)c2cccc(C)c2C)c1 (stereo not drawn) [compound 126] : > 8.00

// field: pKi; key: Cc1cccc(C(COCCOCCNC(=O)Nc2ccncn2)c2c[nH]cn2)c1C (stereo not drawn) [compound 20] ; value = 6.60 to 7.30

###

Molecular target: α2AAR (Homo sapiens, UniProt P08913)
Construct: host or cells: HEK293 (membranes)
Experiment: α2AAR binding assay ([3H]-RX 821002 radioligand)
Details: [3H]-RX 821002 0.5 nM, HEK293 membranes; read-out: α2A affinity (Ki)
pKi: −log10 of the molar value.
outcome.measure: pKi

Known pKi results, listed for orientation:
compound="Cc1cccc(C(c2cccc(NC(=O)CC[N+](C)(C)C)c2)c2c[nH]cn2)c1C (centres unmarked) [compound 144]" outcome_measure=pKi experimental_value="6.60 to 7.30"
compound="Cc1cccc(C(c2cccc(NCCNS(C)(=O)=O)c2)c2c[nH]cn2)c1C (centres unmarked)" outcome_measure=pKi experimental_value="6.60 to 7.30"
compound="Cc1cccc(C(c2cccc(NC(=O)CC3CCNC3)c2)c2c[nH]cn2)c1C (centres unmarked)" outcome_measure=pKi experimental_value="7.30 to 8.00"

With α2AAR (Homo sapiens, UniProt P08913) as the test system, COCCC(=O)Nc1cccc(C(c2c[nH]cn2)c2cccc(C)c2C)c1 (centres unmarked) showed pKi of 7.30 to 8.00

Measured on α2AAR (Homo sapiens, UniProt P08913), Cc1cccc(C(Cc2ccc(NS(=O)(=O)C3CCOCC3)cc2)c2c[nH]cn2)c1C (centres unmarked) has a documented pKi of > 8.00

Readout pKi for CONC(=O)c1cccc(CC(c2c[nH]cn2)c2cccc(C)c2C)c1 (centres unmarked) , test system α2AAR (Homo sapiens, UniProt P08913), was 7.30 to 8.00

Summary: Cc1cccc(C(Cc2ccc(C(=O)O)cc2)c2c[nH]cn2)c1C (single isomer, unassigned) [175-A] , α2AAR (Homo sapiens, UniProt P08913), pKi = < 6.00

Lab note: compound Cc1cccc(C(Cc2ccc(O)c(O)c2)c2c[nH]cn2)c1C (centres unmarked) tested on α2AAR (Homo sapiens, UniProt P08913); recorded pKi was > 8.00

###

Listing: Ki of selected compounds
Target: α2AAR (Homo sapiens)
Construct: host or cells: HEK293 (membranes)
Assay: α2AAR binding assay ([3H]-RX 821002 radioligand)
Settings: [3H]-RX 821002 0.5 nM, HEK293 membranes; read-out: α2A affinity (Ki)

Before answering, review these 6 worked examples.
compound="Cc1cccc(C(c2c[nH]cn2)c2cccc(C(N)=O)n2)c1C (centres unmarked) [compound 56]" outcome_measure=Ki experimental_value="10 to 50 nM"
compound="Cc1cccc(C(Cc2ccc(N(C)C(=O)N(C)C)cc2)c2c[nH]cn2)c1C (centres unmarked) [compound 228]" outcome_measure=Ki experimental_value="< 10 nM"
compound="Cc1cccc(C(c2cccc(COCCNS(C)(=O)=O)c2)c2c[nH]cn2)c1C (centres unmarked) [compound 116]" outcome_measure=Ki experimental_value="10 to 50 nM"
compound="Cc1cccc(C(CCCCNS(C)(=O)=O)c2c[nH]cn2)c1C (centres unmarked) [compound 191]" outcome_measure=Ki experimental_value="50 to 250 nM"
compound="Cc1cccc(C(Cc2ccc(C(=O)NC3CCOCC3)cc2)c2c[nH]cn2)c1C (centres unmarked) [compound 177]" outcome_measure=Ki experimental_value="10 to 50 nM"
compound="Cc1csc(C)c1C(c1cccc(NS(C)(=O)=O)c1)c1c[nH]cn1 (centres unmarked) [compound 402]" outcome_measure=Ki experimental_value="250 to 1000 nM"

Summary: Cc1cccc(C(c2cccc(NC(=O)CCC#N)c2)c2c[nH]cn2)c1C (centres unmarked) [compound 43] , α2AAR (Homo sapiens), Ki = 10 to 50 nM

Record Cc1ccccc1C(Cc1ccc(C(N)=O)cc1)c1c[nH]cn1 (centres unmarked) [compound 244] ; system α2AAR (Homo sapiens); Ki = 50 to 250 nM

Considering Cc1cccc(C(Cc2ccc(S(=O)(=O)NC3COC3)cc2)c2c[nH]cn2)c1C (centres unmarked) [compound 179] , its Ki with α2AAR (Homo sapiens) was recorded as < 10 nM

Readout Ki for Cc1cccc(C(c2cccc(NS(=O)(=O)C[C@H]3CCCO3)c2)c2c[nH]cn2)c1C (some centres unmarked) [compound 166] , test system α2AAR (Homo sapiens), was 10 to 50 nM

# Ki measured on α2AAR (Homo sapiens) for item Cc1c(F)cccc1C(c1cccc(NS(C)(=O)=O)c1)c1c[nH]cn1 (centres unmarked) [compound 75] = 50 to 250 nM

###

Molecular target: α2AAR (α2A-adrenergic receptor) (Homo sapiens)
Construct: expressed in transfected cells; host or cells: HEK293
Sequence (P08913 1-465): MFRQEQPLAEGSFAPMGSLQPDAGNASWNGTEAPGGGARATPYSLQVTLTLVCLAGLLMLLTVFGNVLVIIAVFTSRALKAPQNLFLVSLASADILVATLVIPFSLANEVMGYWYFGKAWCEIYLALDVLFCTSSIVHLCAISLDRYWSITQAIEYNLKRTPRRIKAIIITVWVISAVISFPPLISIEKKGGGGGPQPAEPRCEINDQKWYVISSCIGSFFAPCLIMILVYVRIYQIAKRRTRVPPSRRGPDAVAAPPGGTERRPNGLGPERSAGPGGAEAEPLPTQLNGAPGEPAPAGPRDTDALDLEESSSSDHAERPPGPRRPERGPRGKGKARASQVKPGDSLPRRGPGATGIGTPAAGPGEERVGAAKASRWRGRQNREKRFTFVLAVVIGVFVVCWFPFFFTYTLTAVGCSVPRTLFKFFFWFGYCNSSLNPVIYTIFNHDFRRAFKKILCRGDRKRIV
Assay: α2AAR FLIPR assay (agonist activity)
Type: cell-based
Settings: FLIPR, α2AAR cell line hosted in HEK293 cells; read-out: α2A agonist activity (EC50)
outcome.measure: EC50

The examples below pair each entry with its known result.
compound="Cc1cccc(C(Cc2ccc(C(N)=O)c(F)c2)c2c[nH]cn2)c1C (racemic) [compound 156]" outcome_measure=EC50 experimental_value="< 0.01 µM"
compound="CC(=O)Nc1ccc(CC(c2c[nH]cn2)c2cccc(C)c2C)cc1 (centres unmarked)" outcome_measure=EC50 experimental_value="0.01 to 0.05 µM"
compound="Cc1cccc(C(Cc2ccc(C(=O)NC3CCOCC3)c(F)c2)c2c[nH]cn2)c1C (centres unmarked)" outcome_measure=EC50 experimental_value="0.01 to 0.05 µM"
compound="Cc1cccc(C(c2cccc(NC(=O)CCCN3CCOCC3)c2)c2c[nH]cn2)c1C (centres unmarked)" outcome_measure=EC50 experimental_value="0.05 to 0.25 µM"
compound="Cc1cccc(C(Cc2ccc(N3CCN(C)C3=O)cc2)c2c[nH]cn2)c1C (centres unmarked)" outcome_measure=EC50 experimental_value="< 0.01 µM"

Cc1ccccc1C(Cc1ccc(C(N)=O)cc1)c1c[nH]cn1 (centres unmarked) yielded EC50 of 0.05 to 0.25 µM

The reported EC50 of the compound Cc1cccc(C(c2cccc(NC(=O)CCN3CCOCC3)c2)c2c[nH]cn2)c1C (centres unmarked) was 0.01 to 0.05 µM

Lab book: EC50 of COC(=O)Nc1ccc(CC(c2c[nH]cn2)c2cccc(C)c2C)cc1 (centres unmarked) noted as 0.01 to 0.05 µM
